Provenance of the data: ChEMBL document CHEMBL1132269

- Test system: MDA-MB-361
- ASSAY: The compound was tested for intracellular cytotoxicity against MDA MB 361(mammary carcinoma cell line) in the presence of CPG2 prodrug
- Format: functional, cell-based
- CONDITION: Homo sapiens
pIC50: −log10 of the molar value.
We begin with a simple list: items and their reported pIC50.

{"COMPOUND": "COc1cccc2c1C(=O)c1c(O)c3c(c(O)c1C2=O)C[C@@](O)(C(C)=O)C[C@@H]3OC1CC(NC(=O)OCc2ccc(NC(=O)NC(CCC(=O)O)C(=O)O)cc2)C(O)C(C)O1 (stereo not given in full)", "pIC50": 6.91}
{"COMPOUND": "COc1cccc2c1C(=O)c1c(O)c3c(c(O)c1C2=O)C[C@@](O)(C(C)=O)C[C@@H]3O[C@H]1C[C@H](N)[C@H](O)[C@H](C)O1", "pIC50": 7.44}
{"COMPOUND": "COc1cccc2c1C(=O)c1c(O)c3c(c(O)c1C2=O)C[C@@](O)(C(C)=O)C[C@@H]3OC1CC(NC(=O)OCc2ccc(OC(=O)NC(CCC(=O)O)C(=O)O)cc2)C(O)C(C)O1 (stereo not given in full)", "pIC50": 6.39}
{"COMPOUND": "COc1cccc2c1C(=O)c1c(O)c3c(c(O)c1C2=O)C[C@@](O)(C(=O)CO)C[C@@H]3OC1CC(NC(=O)OCc2ccc(OC(=O)NC(CCC(=O)O)C(=O)O)cc2)C(O)C(C)O1 (stereo not given in full)", "pIC50": 6.69}
{"COMPOUND": "COc1cccc2c1C(=O)c1c(O)c3c(c(O)c1C2=O)C[C@@](O)(C(=O)CO)C[C@@H]3OC1CC(NC(=O)OCc2ccc(NC(=O)NC(CCC(=O)O)C(=O)O)cc2)C(O)C(C)O1 (stereo not given in full)", "pIC50": 7.33}
